Origin of the recorded values: patent US20140205597A1

# target_desc: T1, monoclonal antibody 21-4-3
# T1 construct: mouse IgG1 heavy chain, kappa light chain; also called mAb21-4-3; produced by hybridoma ABH0015 (LMBP-9680-CB)
# method_description: Biacore, captured 21-4-3
measurement_name: binding vs Reference Sequence (=100%)
Answer in %, number only, no unit symbol.

A selection of reference data follows.
{"columns": ["binder", "display_unit", "result_value"],
 "data": [
  ["SEQ ID NO 89 (VHH, L11S, P14A, T110Q, S112G, S113G) VHH: EVQLVESGGGSVQAGGSLRLSCAASRSIGRLDRMGWYRHRPGEPRELVATITGGSSINYGDSVKGRFTISIDNSKNTVYLQMNSLRPEDTAVYYCNFNKYVTSRDTWGQGTLVQVGG", "%", 2],
  ["SEQ ID NO 82 (VHH, P84A) VHH: EVQLVESGGGLVQPGGSLRLSCAASRSIGRLDRMGWYRHRPGEPRELVATITGGSSINYGDSVKGRFTISIDNSKNTVYLQMNSLRAEDTAVYYCNFNKYVTSRDTWGQGTLVTVSS", "%", 56],
  ["SEQ ID NO 84 (VHH, S112G) VHH: EVQLVESGGGLVQPGGSLRLSCAASRSIGRLDRMGWYRHRPGEPRELVATITGGSSINYGDSVKGRFTISIDNSKNTVYLQMNSLRPEDTAVYYCNFNKYVTSRDTWGQGTLVTVGS", "%", 91]
]}

Here is the next item to consider.
Prompt line: Give its binding vs Reference Sequence (=100%) value. Item: SEQ ID NO 72 (VHH, S112G, S113G) VHH: EVQLVESGGGLVQPGGSLRLSCAASRSIGRLDRMGWYRHRPGEPRELVATITGGSSINYGDSVKGRFTISIDNSKNTVYLQMNSLRPEDTAVYYCNFNKYVTSRDTWGQGTLVTVGG
Response line: 45
